Data provenance: patent US11505537B2

- PROTOCOL DESCRIPTION: Human single-dose PK of 60 mg d-MPH-CO2CH2-nicotinoyl-L-Ser chloride capsules, fasted and fed
- Assay type: in vivo
- EXPERIMENTAL PARAMETERS: both sexes, human, plasma, oral, 60 mg, analyte d-MPH-CO2CH2-nicotinoyl-L-Ser; Fed
- Method: A human study was conducted to evaluate the pharmacokinetics of d-MPH-CO2CH2-nicotinoyl-L-Ser and d-methylphenidate after oral administration of 60 mg d-MPH-CO2CH2-nicotinoyl-L-Ser chloride gelatin capsules in healthy volunteers under fasted and fed conditions. Fourteen (14) subjects were enrolled in this phase 1, open-label, single dose, two-period, randomized, crossover study. […]
EXPERIMENTAL READOUT: Cmax (µg/mL)
Please state the figure in µg/mL; there is no need to write the unit.

Req: Could you tell me which Cmax is on file for COC(=O)[C@H](c1ccccc1)[C@H]1CCCCN1C(=O)OC[n+]1cccc(C(=O)N[C@@H](CO)C(=O)O)c1.[Cl-] [d-MPH-CO2CH2-nicotinoyl-L-Ser chloride] ?
Resp: 0.0102

---

Catalogue of compounds with associated d:l Ratio AUC
- PROTOCOL DESCRIPTION: Oral PK in rats of d- and l-isomers (unconjugated MPH, L-Ser and L-Thr conjugates) at equimolar doses
- EXPERIMENTAL PARAMETERS: d-isomer vs l-isomer, mean AUC
- Procedure: In another embodiment, the following compounds were dosed orally in rats at equimolar doses: d-MPH.HCl, l-MPH.HCl, d-MPH-CO2CH2-nicotinoyl-L-Ser, l-MPH-CO2CH2-nicotinoyl-L-Ser, d-MPH-CO2CH2-nicotinoyl-L-Thr, and l-MPH-CO2CH2-nicotinoyl-L-Thr.
Numbers only; they are read as %.

COMPOUND	RECORDED MEASUREMENT
COC(=O)C(c1ccccc1)C1CCCCN1C(=O)OC[n+]1cccc(C(=O)N[C@H](C(=O)[O-])[C@@H](C)O)c1 (stereo partly shown)	53

Now, please, on to the next compound.
Req: Query (compound): COC(=O)C(c1ccccc1)C1CCCCN1C(=O)OC[n+]1cccc(C(=O)N[C@@H](CO)C(=O)[O-])c1 (stereo partly shown) ; field requested: d:l Ratio AUC
Resp: 73

---

- PROTOCOL DESCRIPTION: Human single-dose PK of 60 mg d-MPH-CO2CH2-nicotinoyl-L-Ser chloride capsules, fasted and fed
- Format: in vivo
- EXPERIMENTAL PARAMETERS: both sexes, human, plasma, oral, 60 mg, analyte d-MPH-CO2CH2-nicotinoyl-L-Ser; Fed; read-out: AUC0-last
EXPERIMENTAL READOUT: AUC(0-t)

Req: Find the recorded AUC(0-t) belonging to COC(=O)[C@H](c1ccccc1)[C@H]1CCCCN1C(=O)OC[n+]1cccc(C(=O)N[C@@H](CO)C(=O)O)c1.[Cl-] [d-MPH-CO2CH2-nicotinoyl-L-Ser chloride] and report it.
Resp: 81.1 ng·h/mL

---

- PROTOCOL DESCRIPTION: Human single-dose PK of 60 mg d-MPH-CO2CH2-nicotinoyl-L-Ser chloride capsules, fasted and fed
- Type: in vivo
- EXPERIMENTAL PARAMETERS: both sexes, human, plasma, oral, 60 mg, analyte d-MPH-CO2CH2-nicotinoyl-L-Ser; Fasted
EXPERIMENTAL READOUT: half-life

Req: Dear colleague, I am looking for the recorded half-life of the following compound: COC(=O)[C@H](c1ccccc1)[C@H]1CCCCN1C(=O)OC[n+]1cccc(C(=O)N[C@@H](CO)C(=O)O)c1.[Cl-] [d-MPH-CO2CH2-nicotinoyl-L-Ser chloride]
Resp: 5.84 h
